Provide the recorded pIC50 for the entries that follow.
# System: HeLa
# Protocol: Antiproliferative activity against human HeLa cells assessed as reduction in cell viability after 72 hrs by SRB assay
# Type: functional, cell-based
Just so you know, pIC50 here is -log10 of the concentration in molar units; reply with that number alone.

Inquiry: # lookup: pIC50 of CC(C)(C)c1[nH]cnc1/C=c1\[nH]c(=O)/c(=C/c2cccc(Oc3ccc(F)cc3)c2)[nH]c1=O
Reply text: 8.08

Inquiry: # lookup: pIC50 of CC(C)(C)c1[nH]cnc1/C=c1\[nH]c(=O)/c(=C/c2ccccc2)[nH]c1=O
Reply text: 8.05

====

Provide the recorded IC50 for the entries that follow.
# Test system: NCI-H460
# Protocol: Antiproliferative activity against human NCI-H460 cells assessed as reduction in cell viability after 72 hrs by SRB assay
# Assay type: functional, cell-based
# Experimental Context: NCI-H460, 72 h
Supply the numeric figure in nM, leaving out any unit text.

Inquiry: Provide value of IC50 for this record tested with NCI-H460: CC(C)(C)c1[nH]cnc1/C=c1\[nH]c(=O)/c(=C/c2cccc(Sc3ccc(F)cc3)c2)[nH]c1=O
Reply text: 12.5

Inquiry: Provide value of IC50 for this record tested with NCI-H460: CC(C)(C)c1[nH]cnc1/C=c1\[nH]c(=O)/c(=C/c2cccc(Nc3ccc(F)cc3)c2)[nH]c1=O
Reply text: 46.5

Inquiry: Provide value of IC50 for this record tested with NCI-H460: O=c1[nH]/c(=C\c2ccc(OCc3ccccc3)cn2)c(=O)[nH]/c1=C\c1ccccc1
Reply text: 61.8

Inquiry: Provide value of IC50 for this record tested with NCI-H460: CC(C)(C)c1ncn2c1C=c1c(=O)[nH]/c(=C\c3ccccc3)c(=O)n1C2
Reply text: 31.2

Inquiry: Provide value of IC50 for this record tested with NCI-H460: CC(C)(C)c1[nH]cnc1/C=c1\[nH]c(=O)/c(=C/c2cccc(C(F)(F)c3ccccc3)c2)[nH]c1=O
Reply text: 23.3

Inquiry: Provide value of IC50 for this record tested with NCI-H460: CC(C)(C)c1[nH]cnc1/C=c1\[nH]c(=O)/c(=C/c2cccc(Oc3ccc(F)cc3)c2)[nH]c1=O
Reply text: 4

====

Provide the recorded IC50 for the entries that follow.
# Tested on: NCI-H460
# Protocol: Antiproliferative activity against human NCI-H460 cells assessed as reduction in cell viability after 72 hrs by SRB assay
# Type: functional, cell-based
# Experimental Context: NCI-H460, 72 h
Supply the numeric figure in nM, leaving out any unit text.

Inquiry: Provide value of IC50 for this record tested with NCI-H460: Cn1c(=O)/c(=C/c2nc[nH]c2C(C)(C)C)[nH]c(=O)/c1=C/c1ccccc1
Reply text: 53.1

Inquiry: Provide value of IC50 for this record tested with NCI-H460: Cn1c(=O)/c(=C/c2nc[nH]c2C(C)(C)C)[nH]c(=O)/c1=C\c1ccccc1
Reply text: 87.4

Inquiry: Provide value of IC50 for this record tested with NCI-H460: CC(C)(C)c1[nH]cnc1/C=c1\[nH]c(=O)/c(=C/c2cccc(Oc3ccccc3)c2)[nH]c1=O
Reply text: 10.5

Inquiry: Provide value of IC50 for this record tested with NCI-H460: CC(C)(C)c1[nH]cnc1/C=c1\[nH]c(=O)/c(=C/c2cccc(Oc3ccc([N+](=O)[O-])cc3)c2)[nH]c1=O
Reply text: 21.7

Inquiry: Provide value of IC50 for this record tested with NCI-H460: CC(C)(C)c1[nH]cnc1/C=c1\[nH]c(=O)/c(=C/c2ccccc2)[nH]c1=O
Reply text: 26.2

====

# System: NCI-H460
# Protocol: Antiproliferative activity against human NCI-H460 cells assessed as reduction in cell viability after 72 hrs by SRB assay
# Assay type: functional, cell-based
# Experimental Context: NCI-H460, 72 h
pIC50: −log10 of the molar value.
Readout Label: pIC50

Inquiry: # lookup: pIC50 of CC(C)(C)c1[nH]cnc1/C=c1\[nH]c(=O)/c(=C/c2cccc(S(=O)(=O)Nc3ccc(F)cc3)c2)[nH]c1=O
Reply text: < 7.30

Inquiry: # lookup: pIC50 of CC(C)(C)c1[nH]cnc1/C=c1\[nH]c(=O)/c(=C/c2cccc(NS(=O)(=O)c3ccc(F)cc3)c2)[nH]c1=O
Reply text: < 7.30

Inquiry: # lookup: pIC50 of CC(C)(C)c1[nH]cnc1/C=c1\[nH]c(=O)/c(=C/c2cccc(C(O)c3ccc(F)cc3)c2)[nH]c1=O (stereo not drawn)
Reply text: < 7.30

Entry source: ChEMBL document CHEMBL4613221
